B1: RTP4 (parent)
chain: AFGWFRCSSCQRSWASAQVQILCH

- Variants of: B1
- Measurement notes: protein stability index of a GFP-peptide fusion (GPS, HEK-293T) (PSI 1-6); higher = more stable;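 also: lentivirally expressed fusions sorted by FACS into six bins by GFP to DsRed ratio, PSI derived from sequencing read proportions per bin multiplied by bin number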
- Study conditions: c terminus: a fixed tail appended
Measurement name: protein stability index
I'd appreciate a reply containing only the number, no unit.

INPUT: I am curious: what protein stability index value has been reported for AFGWFRCSSCQRSWASAQVQGLCH [I21G] ?
OUTPUT: 1.49

INPUT: Record request: protein stability index value, item AFGWFRCSSCQRSWASAQVQILNH [C23N]
OUTPUT: 2.21

INPUT: So what does the record say about protein stability index for AFGWFRCSSCQRSWASAQVQILRH [C23R] ?
OUTPUT: 1.49

INPUT: Form field: reported protein stability index of AFGWFRCSSCQMSWASAQVQILCH [R12M]
OUTPUT: 2.86

INPUT: What measured protein stability index goes with AFGWFRCSSCQRSKASAQVQILCH [W14K] ?
OUTPUT: 2.54

INPUT: Given the variant AFGWFRCSSCQRSWASAQVQIHCH [L22H] , what is its reported protein stability index?
OUTPUT: 2.13

INPUT: Quick one: protein stability index for AFGWFRCSSCWRSWASAQVQILCH [Q11W] ?
OUTPUT: 1.81

INPUT: Would you mind telling me what protein stability index value was observed for AFGWFRCSSCQRSWASAIVQILCH [Q18I] ?
OUTPUT: 2.59

INPUT: protein stability index lookup needed for AFGWFRCSSCQRSWASAQVQILLH [C23L] , thanks.
OUTPUT: 2.78

INPUT: What does the record list as protein stability index for AFGWFRCSSCQRSWASAQVQWLCH [I21W] ?
OUTPUT: 1.37

INPUT: # query: protein stability index of entry AFGWFRCSSCQRSAASAQVQILCH [W14A]
OUTPUT: 1.8
